pKi listing for selected compounds.
Target: Mu-type opioid receptor (Homo sapiens, UniProt P35372)
Sequence (P35372 whole entry): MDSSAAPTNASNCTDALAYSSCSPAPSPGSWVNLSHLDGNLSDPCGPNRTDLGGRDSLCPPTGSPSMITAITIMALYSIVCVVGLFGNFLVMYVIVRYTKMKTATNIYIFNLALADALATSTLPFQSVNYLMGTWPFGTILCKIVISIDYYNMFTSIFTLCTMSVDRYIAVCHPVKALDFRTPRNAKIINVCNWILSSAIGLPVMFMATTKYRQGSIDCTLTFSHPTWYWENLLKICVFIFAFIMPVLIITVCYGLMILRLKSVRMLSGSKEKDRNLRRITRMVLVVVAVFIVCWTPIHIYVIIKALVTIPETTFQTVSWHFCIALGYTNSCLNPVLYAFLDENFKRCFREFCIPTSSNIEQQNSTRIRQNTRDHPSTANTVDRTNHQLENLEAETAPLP
Assay: Binding affinity using [3H]diprenorphine as the radioligand against K303E Opioid receptor mu 1 in COS-7 cells
Format: cell-based, Cercopithecidae
Recall that pKi is obtained by taking minus log10 of the concentration measured in molar.

Completed entries (count: 3):
Find the recorded pKi belonging to CN1CC[C@]23c4c5ccc(O)c4O[C@H]2c2[nH]c4c(c2C[C@@]3(O)[C@H]1C5)C[C@@]1(O)[C@H]2Cc3ccc(O)c5c3[C@@]1(CCN2C)[C@H]4O5 and report it. 7.38

Find the recorded pKi belonging to COc1ccc2c3c1O[C@H]1c4[nH]c5c(c4C[C@@]4(O)[C@@H](C2)N(CC2CC2)CC[C@]314)C[C@@]1(O)[C@H]2Cc3ccc(O)c4c3[C@@]1(CCN2C)[C@H]5O4 and report it. 7.28

Find the recorded pKi belonging to CC(=O)N1CC[C@]23c4c5ccc(O)c4O[C@H]2c2[nH]c4c(c2C[C@@]3(O)[C@H]1C5)C[C@@]1(O)[C@H]2Cc3ccc(O)c5c3[C@@]1(CCN2CC1CC1)[C@H]4O5 and report it. 7.38

---
Find the recorded pKi belonging to CN1CC[C@]23c4c5ccc(O)c4O[C@H]2c2[nH]c4c(c2C[C@H]3[C@H]1C5)C[C@@]1(O)[C@H]2Cc3ccc(O)c5c3[C@@]1(CCN2CC1CC1)[C@H]4O5 and report it. 9.80

Find the recorded pKi belonging to COc1ccc2c3c1O[C@H]1c4[nH]c5c(c4C[C@@]4(O)[C@@H](C2)N(CC2CC2)CC[C@]314)C[C@@]1(O)[C@H]2Cc3ccc(O)c4c3[C@@]1(CCN2CC1CC1)[C@H]5O4 and report it. 8.57
